- test_protocol: WST-1 cell viability analysis, HEK293
- Format: cell-based
- protocol_conditions: human, HEK293 normal kidney cells, average of 4 tests, read-out: Average viability of HEK293 cells
- Method: The cell numbers were counted and reseed as 2×10^6 in cell culture plate/flask. Then, the culture medium were added to a volume of 10 ml, and the cells were cultured for 2-3 days. Then, the cells were suspended for loading into 96-well plates. The number of cells was 3000 and the volume of the culture medium was 100 μl each well. Removing the original culture medium from 96-well plate. […] Detecting and calculate the survival rate of each cancer cells with an ELISA reader at OD450 nm.
measured_attribute: viability at 72 h, 10 µM (%)
// note: answer is a bare numeric in %

I am curious: what viability at 72 h, 10 µM value has been reported for CC1=C(C(=O)OC(C)C)C(c2cccc([N+](=O)[O-])c2)C(C(=O)OC2CN(C(c3ccccc3)c3ccccc3)C2)=C(N)N1 (stereo not shown) [Azelnidipine] ?
94.2

====

- test_protocol: WST-1 cell viability analysis, BEAS-2B
- Type: cell-based
- protocol_conditions: human, BEAS-2B cells (normal bronchial epithelial cell line), run 0517-10 min, read-out: viability (survival rate) of BEAS-2B cells
measured_attribute: viability at 72 h, 10 µM (%)
// note: answer is a bare numeric in %

I am curious: what viability at 72 h, 10 µM value has been reported for CC1=C(C(=O)OC(C)C)C(c2cccc([N+](=O)[O-])c2)C(C(=O)OC2CN(C(c3ccccc3)c3ccccc3)C2)=C(N)N1 (stereo not shown) [Azelnidipine] ?
85.4

====

- test_protocol: WST-1 cell viability analysis, HEK293
- Assay type: cell-based
- protocol_conditions: human, HEK293 cells (normal kidney cell line), summary (HEK293), read-out: Inhibitory effect, Normal cell: Kidney cell
measured_attribute: viability at 72 h, 10 µM (%)
// note: answer is a bare numeric in %

I am curious: what viability at 72 h, 10 µM value has been reported for CC1=C(C(=O)OC(C)C)C(c2cccc([N+](=O)[O-])c2)C(C(=O)OC2CN(C(c3ccccc3)c3ccccc3)C2)=C(N)N1 (stereo not shown) ?
94.2

====

- test_protocol: WST-1 cell viability analysis, BEAS-2B
- Type: cell-based
- protocol_conditions: human, BEAS-2B cells (normal bronchial epithelial cell line), average of 4 tests, read-out: average viability of BEAS-2B cells
measured_attribute: viability at 72 h, 10 µM (%)
// note: answer is a bare numeric in %

I am curious: what viability at 72 h, 10 µM value has been reported for CC1=C(C(=O)OC(C)C)C(c2cccc([N+](=O)[O-])c2)C(C(=O)OC2CN(C(c3ccccc3)c3ccccc3)C2)=C(N)N1 (stereo not shown) ?
77.5

====

- test_protocol: WST-1 cell viability analysis, BEAS-2B
- Assay type: cell-based
- protocol_conditions: human, BEAS-2B bronchial epithelial cells, run 0510-10 min, read-out: viability (survival rate) of BEAS-2B cells
measured_attribute: viability at 72 h, 10 µM (%)
// note: answer is a bare numeric in %

I am curious: what viability at 72 h, 10 µM value has been reported for CC1=C(C(=O)OC(C)C)C(c2cccc([N+](=O)[O-])c2)C(C(=O)OC2CN(C(c3ccccc3)c3ccccc3)C2)=C(N)N1 (stereo not shown) ?
61.3
